Consider the following molecules; for each one, report its herbicidal effect rating, MOOVA.
# System: Monochoria vaginalis, Presl.
# test_name: Preemergence weed control under flooded paddy conditions, MOOVA (Monochoria); also: meaning of each grade not given here
# Assay type: in vivo
# run_conditions: Rate 0.2500 kg/ha; preemergence, flooded paddy; rated three to four weeks after treatment
The response must contain the number and no unit.

Input line: Any idea what herbicidal effect rating, MOOVA was measured for `Cn1c(C(F)(F)F)cc(=O)n(-c2ccc3snc(C(=O)NOCc4ccccc4)c3c2)c1=O` ?
Output line: 9.0

Input line: Any idea what herbicidal effect rating, MOOVA was measured for `Cn1c(C(F)(F)F)cc(=O)n(-c2ccc3snc(COC(=O)Nc4ccccc4)c3c2)c1=O` ?
Output line: 9.0

Input line: Any idea what herbicidal effect rating, MOOVA was measured for `COc1cc2c(cc1-c1nsc3ccc(-n4c(=O)cc(C(F)(F)F)n(C)c4=O)cc13)CCC2` ?
Output line: 9.0

Input line: Any idea what herbicidal effect rating, MOOVA was measured for `Cn1c(C(F)(F)F)cc(=O)n(-c2ccc3snc(C(C#N)(Cc4ccccc4)Cc4ccccc4)c3c2)c1=O` ?
Output line: 7.0
